System: A549
Assay overview: Cytotoxicity against human A549 cells after 72 hrs by MTT assay
Format: functional, cell-based
Run parameters: A549, 72 h
Parameter: pIC50
Please express pIC50 as -log10 of the molar concentration.

Compound	Measurement target	pIC50
O=C1NC(=O)c2c1c1c3cc(O)ccc3[nH]c1n1nccc21	A549	4.82
O=C1NC(=O)C(c2c(-n3cccn3)[nH]c3ccccc23)=C1Br	A549	4.60
Cc1ccc2[nH]c(-c3ccc[nH]3)c(C3CC(=O)NC3=O)c2c1 (stereo not given)	A549	4.70
O=C1NC(=O)c2c1c1c3ccccc3[nH]c1c1cccn21	A549	4.74

// pIC50 value for COc1ccc2[nH]c3c(c4c(n5cccc35)C(=O)N(C)C4=O)c2c1 : 4.44

Noted for COc1ccc2[nH]c(-c3ccc[nH]3)cc2c1 : its pIC50 reads 4.26

Sample COc1ccc2[nH]c(-n3cccn3)c(C3=C(Br)C(=O)NC3=O)c2c1 ; pIC50 observed: 4.54

Lookup result for COc1ccc2[nH]c3c(c4c(n5cccc35)C(=O)NC4=O)c2c1 ; measured pIC50: 4.59

Record O=C1NC(=O)c2c1c1c3ccccc3[nH]c1n1nccc21 , field pIC50: 5.10

So, O=C1NC(=O)c2c1c1[nH]cnc1c1[nH]c3ccccc3c21 [GRANULATIMIDE] ? Its pIC50 was 4.74

Per the records, this compound ( Cc1ccc2[nH]c3c(c4c(c5ccnn53)C(=O)NC4=O)c2c1 ) has pIC50 equal to 5.10

The recorded pIC50 for entry O=C1NC(=O)c2c1c1c3ccccc3[nH]c1n1cncc21 [ISOGRANULATIMIDE] equals 4.10

Query COc1ccc2[nH]c(-c3ccc[nH]3)c(C3CC(=O)N(C)C3=O)c2c1 (stereo not given) yields pIC50 of 5.15

Briefly, pIC50 measured for COc1ccc2[nH]c(-c3ccc[nH]3)c(C3CC(=O)NC3=O)c2c1 (stereo not given) : 5.40

The compound Cc1ccc2[nH]c(-n3cccn3)c(C3=C(Br)C(=O)NC3=O)c2c1 showed pIC50 equal to 4.54

Value of measured pIC50 for the entry O=C1CC(c2c(-c3ccc[nH]3)[nH]c3ccccc23)C(=O)N1 (stereo not given) : 5.10

Measured pIC50, COc1ccc2[nH]c3c(c4c(c5ccnn53)C(=O)NC4=O)c2c1 : 5.10

The compound listed as Cc1ccc2[nH]c3c(c4c(n5cccc35)C(=O)NC4=O)c2c1 shows pIC50 equal to 4.85

###

Recorded IC50, one value per entry.
Measurement target: Glycogen synthase kinase-3 (Sus scrofa, UniProt B2LUN4+I6LNT8)
Assay overview: Inhibition of porcine brain GSK3alpha/beta using GS1 as substrate
Quick note: give the figure in nM, leave out the unit.

Observe how each entry below is paired with its result.
Compound string	Measurement target	Unit symbol	IC50
O=C1NC(=O)c2c1c1c3cc(O)ccc3[nH]c1n1nccc21	Glycogen synthase kinase-3 (Sus scrofa, UniProt B2LUN4+I6LNT8)	nM	41
Cc1ccc2[nH]c3c4cn[nH]c4c4c(c3c2c1)C(=O)NC4=O	Glycogen synthase kinase-3 (Sus scrofa, UniProt B2LUN4+I6LNT8)	nM	170
COc1ccc2[nH]c3c(c4c(c5ccnn53)C(=O)NC4=O)c2c1	Glycogen synthase kinase-3 (Sus scrofa, UniProt B2LUN4+I6LNT8)	nM	700

The compound listed as O=C1NC(=O)c2c1c1c3cc(O)ccc3[nH]c1c1cccn21 has a reported IC50 of 420
